Lymphocyte Proliferation (cpm) T cell values for the molecules below.
# Tested on: T lymphocyte
# testName: ConA induced T-lymphocyte proliferation ([3H]thymidine)
# Type: cell-based, mouse
# statedConditions: 10^−6 M; control 125789
Lab book: enter the figure in cpm, no units written.

Please review the entries below; each comes with its answer.
molecule	Lymphocyte Proliferation (cpm) T cell
CC(C)C12OC1C1OC13C1(OC1C(O)C1(O)C4=C(CCC13C)C(=O)OC4)C2O (stereo not drawn) [LLDT-23]	55614
CC(C)C12OC1C1OC13C1(OC1C1OC14C1=C(CCC43C)C(=O)OC1)C2O [LLDT-20, (5R, 6S)-5,6-epoxytriptolide]	25344
CC(C)C12OC1C1OC13C1(OC1C(O)C1(O)C4=C(CCC13C)C(=O)OC4)C2O [LLDT-22, cis-(5R, 6S)-5,6-dihydroxytriptolide]	2662
CC(C)[C@]12O[C@H]1[C@@H]1O[C@@]13[C@@]1(C)CCC4=C(COC4=O)[C@@]14O[C@H]4[C@@H]1O[C@@]13C2=O [LLDT-16, (5R, 6S)-5,6-epoxytriptonide]	76204
CC(C)C12OC1C1OC13C1(C)CCC4=C(COC4=O)C1=CC1OC13C2O (stereo not drawn) [LLDT-18, Δ^5,6-dehydrotriptolide]	462

Query: Any idea what its Lymphocyte Proliferation (cpm) T cell is? The molecule is CC(C)[C@]12O[C@H]1[C@@H]1O[C@]13[C@]1(O[C@H]1[C@@H]1O[C@@]14C1=C(CC[C@]34C)C(=O)OC1)[C@H]2O [LLDT-21, (5R, 6S)-5,6-epoxy-14-epitriptolide]
Response: 97217

----------
Cytotoxicity OD Value values for the compounds below.
# Test system: lymphocyte
# testName: MTT cytotoxic assay
# Assay type: cell-based, mouse
# statedConditions: 10^−6 M; control 0.337

compound	Cytotoxicity OD Value
CC(C)C12OC1C1OC13C1(OC1C(O)C1(O)C4=C(CCC13C)C(=O)OC4)C2O [LLDT-22, cis-(5R, 6S)-5,6-dihydroxytriptolide]	0.157
CC(C)[C@]12O[C@H]1[C@@H]1O[C@]13[C@]1(O[C@H]1[C@@H]1O[C@@]14C1=C(CC[C@]34C)C(=O)OC1)[C@H]2O [LLDT-21, (5R, 6S)-5,6-epoxy-14-epitriptolide]	0.361

Alright, here's another compound for you.
Query: Form: Entry = CC(C)C12OC1C1OC13C1(OC1C1OC14C1=C(CCC43C)C(=O)OC1)C2O [LLDT-20, (5R, 6S)-5,6-epoxytriptolide] | System = lymphocyte | Cytotoxicity OD Value = ____
Response: 0.263

----------
# Tested on: lymphocyte
# testName: MTT cytotoxic assay
# Assay type: cell-based, mouse
# statedConditions: 10^−8 M; control 0.337
Cytotoxicity OD Value values for the compounds below.
Quick one: just the number, no unit, thanks!

compound	Cytotoxicity OD Value
CC(C)[C@]12O[C@H]1[C@@H]1O[C@@]13[C@@]1(C)CCC4=C(COC4=O)[C@]1(O)[C@@H](O)[C@@H]1O[C@@]13C2=O [LLDT-17, cis-(5R, 6S)-5,6-dihydroxytriptonide]	0.334
CC(C)C12OC1C1OC13C1(OC1C1OC14C1=C(CCC43C)C(=O)OC1)C2O [LLDT-20, (5R, 6S)-5,6-epoxytriptolide]	0.374
CC(C)[C@]12O[C@H]1[C@@H]1O[C@@]13[C@@]1(C)CCC4=C(COC4=O)C1=C[C@@H]1O[C@@]13C2=O [LLDT-15, Δ^5,6-dehydrotriptonide]	0.327
CC(C)[C@]12O[C@H]1[C@@H]1O[C@]13[C@]1(O[C@H]1[C@@H]1O[C@@]14C1=C(CC[C@]34C)C(=O)OC1)[C@H]2O [LLDT-21, (5R, 6S)-5,6-epoxy-14-epitriptolide]	0.359

Alright, here's another compound for you.
Query: Any idea what its Cytotoxicity OD Value is? The compound is CC(C)[C@]12O[C@H]1[C@@H]1O[C@]13[C@]1(O[C@H]1C=C1C4=C(CC[C@@]13C)C(=O)OC4)[C@H]2O [LLDT-19, Δ^5,6-dehydro-14-epitriptolide]
Response: 0.346

Hello, the source for this data is patent US7626044B2, in case you need it.
